# tested_system: T1, soluble GPC3 core polypeptide (Homo sapiens (Human), UniProt P51654 25-563)
# T1 construct: Immobilized on the ELISA plate at 1 ug/mL; also called glypican 3 antigen; glypican 3
# T1 sequence (P51654 other isoform, or with tags, fused parts or gaps limits assumed): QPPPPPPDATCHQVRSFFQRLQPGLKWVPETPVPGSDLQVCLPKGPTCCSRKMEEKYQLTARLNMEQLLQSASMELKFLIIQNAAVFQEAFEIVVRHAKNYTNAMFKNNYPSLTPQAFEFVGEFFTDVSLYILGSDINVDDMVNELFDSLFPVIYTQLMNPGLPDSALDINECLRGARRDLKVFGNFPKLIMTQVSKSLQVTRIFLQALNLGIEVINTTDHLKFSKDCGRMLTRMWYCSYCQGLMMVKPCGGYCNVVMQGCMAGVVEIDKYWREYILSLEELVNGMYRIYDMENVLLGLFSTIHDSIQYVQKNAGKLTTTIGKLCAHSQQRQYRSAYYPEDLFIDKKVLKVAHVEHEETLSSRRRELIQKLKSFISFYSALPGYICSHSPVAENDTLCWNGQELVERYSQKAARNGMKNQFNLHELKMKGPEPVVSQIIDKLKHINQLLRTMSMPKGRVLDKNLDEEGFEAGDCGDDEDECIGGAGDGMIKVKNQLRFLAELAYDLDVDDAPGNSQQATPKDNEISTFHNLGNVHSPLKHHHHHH
# assay_comment: competitive ELISA against biotinylated H0L0 on immobilized soluble GPC3 core (FIG. 14)
experimental_readout: binding result

binder | result
H0M85L0 antibody (antibody, human IgG1, V domains shown, its constant region is not specified) VH: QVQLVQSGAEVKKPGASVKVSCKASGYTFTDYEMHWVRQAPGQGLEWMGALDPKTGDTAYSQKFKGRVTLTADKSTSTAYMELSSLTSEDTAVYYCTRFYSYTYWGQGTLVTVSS VL: DVVMTQSPLSLPVTPGEPASISCRSSQSLVHSNRNTYLHWYLQKPGQSPQLLIYKVSNRFSGVPDRFSGSGSGTDFTLKISRVEAEDVGVYYCSQNTHVPPTFGQGTKLEIK | binds
pH7M85pL16 antibody (antibody, human IgG1, V domains shown, its constant region is not specified; also called pH7M85pL6 [sic]) VH: QVQLVQSGAEVKKPGASVTVSCKASGYTFTDYEMHWIRQPPGEGLEWIGAIDPKTGDTAYSESFQDRVTLTADKSTSTAYMELSSLTSEDTAVYYCTRFYSYTYWGQGTLVTVSS VL: DIVMTQSPLSLPVTPGEPASISCQASESLVHSNRNTYLHWYLQKPGQSPQLLIYKVSNRFSGVPDRFSGSGSGTDFTLKISRVEAEDVGVYYCSQNTHVPPTFGQGTKVEIE | binds
pH7pL16 antibody (antibody, IgG1, V domains shown, Variable regions only) VH: QVQLVQSGAEVKKPGASVTVSCKASGYTFTDYEMHWIRQPPGEGLEWIGAIDPKTGDTAYSESFQDRVTLTADKSTSTAYMELSSLTSEDTAVYYCTRFYSYTYWGQGTLVTVSS VL: DIVMTQSPLSLPVTPGEPASISCQASESLVHSNRNTYLHWYLQKPGQSPQLLIYKVSNRFSGVPDRFSGSGSGTDFTLKISRVEAEDVGVYYCSQNTHVPPTFGQGTKVEIE | binds
